- Experimental system: GST-Bcl-2 (Homo sapiens (Human))
- Assay protocol: Time Resolved-Fluorescence Resonance Energy Transfer (TR-FRET) Bcl-2 binding assay
- Run parameters: GST-Bcl-2 1 nM, F-Bak peptide probe 100 nM, Tb-anti-GST antibody 1 nM; Ki by Wang's equation
# note: exactly 0.9 nM is not below, so it is no (0); use yes (1) for Ki strictly under it

Prompt: Lab log: compare recorded Ki with 0.9 nM; is it strictly lower for CC1(C)CCC(CN2CCN(c3ccc(C(=O)NS(=O)(=O)c4ccc(NCC5CCOCC5)c([N+](=O)[O-])c4)c(Oc4ccccc4-c4cccnc4N)c3)CC2)=C(c2ccc(Cl)cc2)C1 ?
Response: no (0)

Prompt: Lab log: compare recorded Ki with 0.9 nM; is it strictly lower for CN(C)CCCNc1ccc(S(=O)(=O)NC(=O)c2ccc(N3CCN(Cc4ccccc4-c4ccc(Cl)cc4)CC3)cc2Oc2cccc(CO)c2)cc1[N+](=O)[O-] ?
Response: yes (1)

Prompt: Lab log: compare recorded Ki with 0.9 nM; is it strictly lower for O=C(NS(=O)(=O)c1ccc(NCC2CCOCC2)c([N+](=O)[O-])c1)c1ccc(N2CCN(Cc3ccccc3-c3ccc(Cl)cc3)CC2)cc1Oc1ccccc1Cl ?
Response: yes (1)

Prompt: Lab log: compare recorded Ki with 0.9 nM; is it strictly lower for CN(C)CCCNc1ccc(S(=O)(=O)NC(=O)c2ccc(N3CCN(CC4=C(c5ccc(Cl)cc5)CC(C)(C)CC4)CC3)cc2Oc2ccc(F)cc2)cc1[N+](=O)[O-] ?
Response: yes (1)

Prompt: Lab log: compare recorded Ki with 0.9 nM; is it strictly lower for O=C(NS(=O)(=O)c1ccc(NCCCN2CCOCC2)c([N+](=O)[O-])c1)c1ccc(N2CCN(Cc3ccccc3-c3ccc(Cl)cc3)CC2)cc1Oc1cccc(-c2ccncc2)c1 ?
Response: no (0)

###

- Experimental system: GST-Bcl-2 (Homo sapiens (Human), UniProt P10415)
- Sequence (P10415 whole entry): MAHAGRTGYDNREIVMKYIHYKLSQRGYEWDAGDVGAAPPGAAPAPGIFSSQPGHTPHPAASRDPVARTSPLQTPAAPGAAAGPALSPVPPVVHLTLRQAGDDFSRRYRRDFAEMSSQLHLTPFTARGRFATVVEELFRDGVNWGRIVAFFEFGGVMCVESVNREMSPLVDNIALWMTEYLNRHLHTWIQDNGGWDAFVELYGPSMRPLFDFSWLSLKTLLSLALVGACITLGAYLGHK
- Assay protocol: Time Resolved-Fluorescence Resonance Energy Transfer (TR-FRET) Bcl-2 binding assay
- Run parameters: GST-Bcl-2 1 nM, F-Bak peptide probe 100 nM, Tb-anti-GST antibody 1 nM; Ki by Wang's equation
Exercise: for every item that follows, state its recorded pKi.
// pKi: -log10(molar conc.)

Prompt: Provide only the value of recorded pKi for CC1(C)CCC(CN2CCN(c3ccc(C(=O)NS(=O)(=O)c4ccc(OCC5COCCO5)c([N+](=O)[O-])c4)c(Oc4cc5cc[nH]c5cc4Cl)c3)CC2)=C(c2ccc(Cl)cc2)C1 (centres unmarked) [Example 290]
Response: 9.60

Prompt: Provide only the value of recorded pKi for CC(=O)Nc1ccc(Oc2cc(N3CCN(Cc4ccccc4-c4ccc(Cl)cc4)CC3)ccc2C(=O)NS(=O)(=O)c2ccc(NCC3CCOCC3)c([N+](=O)[O-])c2)cc1 [Example 82]
Response: 6.29

Prompt: Provide only the value of recorded pKi for CC1(C)CCC(CN2CCN(c3ccc(C(=O)NS(=O)(=O)c4ccc(NCCN5CCOCC5)c([N+](=O)[O-])c4)c(Oc4cccc(F)c4F)c3)CC2)=C(c2ccc(Cl)cc2)C1 [Example 135]
Response: 10.17

Prompt: Provide only the value of recorded pKi for Cc1cc2cc(Oc3cc(N4CCN(CC5=C(c6ccc(Cl)cc6)CC(C)(C)CC5)CC4)ccc3C(=O)NS(=O)(=O)c3ccc(NC4CCN(C)CC4)c([N+](=O)[O-])c3)ccc2[nH]1 [Example 3]
Response: 9.08

###

- Experimental system: GST-Bcl-2 (Homo sapiens (Human))
- Assay protocol: Time Resolved-Fluorescence Resonance Energy Transfer (TR-FRET) Bcl-2 binding assay
- Run parameters: GST-Bcl-2 1 nM, F-Bak peptide probe 100 nM, Tb-anti-GST antibody 1 nM; Ki by Wang's equation
- Description: Determination of the utility of compounds having Formula (I) as binders to and inhibitors of anti-apoptotic Bcl-2 proteins was performed using the Time Resolved-Fluorescence Resonance Energy Transfer (TR-FRET) Assay. Tb-anti-GST antibody was purchased from Invitrogen (Catalog No. PV4216). Representative compounds were serially diluted in dimethyl sulfoxide (DMSO) starting at 50 μM (2× starting concentration; 10% DMSO) and 10 μL were transferred into a 384-well plate. […]
pKi: −log10 of the molar value.
Decision: pKi compared against 10; not below it gives class 1, below it gives class 0.

Prompt: Form field: pKi at least 10? Entry: CC1(C)CCC(CN2CCN(c3ccc(C(=O)NS(=O)(=O)c4ccc(NCC5CCOCC5)c([N+](=O)[O-])c4)c(Oc4cnc(N)c(Br)c4)c3)CC2)=C(c2ccc(Cl)cc2)C1
Response: class 1

Prompt: Form field: pKi at least 10? Entry: CC1(C)CCC(CN2CCN(c3ccc(C(=O)NS(=O)(=O)c4ccc(NCC5CCOCC5)c([N+](=O)[O-])c4)c(Oc4cc(N)cc(Cl)c4)c3)CC2)=C(c2ccc(Cl)cc2)C1
Response: class 0

Prompt: Form field: pKi at least 10? Entry: CC1(C)CCC(CN2CCN(c3ccc(C(=O)NS(=O)(=O)c4ccc(NCC5CCOCC5)c([N+](=O)[O-])c4)c(Oc4cnc(N)c(F)c4)c3)CC2)=C(c2ccc(Cl)cc2)C1
Response: class 1

Prompt: Form field: pKi at least 10? Entry: CC1(C)CCC(CN2CCN(c3ccc(C(=O)NS(=O)(=O)c4ccc(NC5CCN(CCO)CC5)c([N+](=O)[O-])c4)c(Oc4cccc(Cl)c4)c3)CC2)=C(c2ccc(Cl)cc2)C1
Response: class 1

Prompt: Form field: pKi at least 10? Entry: CN1CCC(Nc2ccc(S(=O)(=O)NC(=O)c3ccc(N4CCN(CC5=C(c6ccc(Cl)cc6)CC(C)(C)CC5)CC4)cc3Oc3cc(Cl)cc(Cl)c3)cc2[N+](=O)[O-])CC1
Response: class 1

Prompt: Form field: pKi at least 10? Entry: CC1(C)CCC(CN2CCN(c3ccc(C(=O)NS(=O)(=O)c4ccc(OCC#CCN5CCOCC5)c([N+](=O)[O-])c4)c(Oc4cc5cc[nH]c5cc4F)c3)CC2)=C(c2ccc(Cl)cc2)C1
Response: class 0

Prompt: Form field: pKi at least 10? Entry: CC1(C)CCC(CN2CCN(c3ccc(C(=O)NS(=O)(=O)c4ccc(NCCCN5CCOCC5)c([N+](=O)[O-])c4)c(Oc4cc(Cl)ccc4Cl)c3)CC2)=C(c2ccc(Cl)cc2)C1
Response: class 0

Prompt: Form field: pKi at least 10? Entry: CN1CCC(O)(CNc2ccc(S(=O)(=O)NC(=O)c3ccc(N4CCN(CC5=C(c6ccc(Cl)cc6)CC(C)(C)CC5)CC4)cc3Oc3ccccc3Cl)cc2[N+](=O)[O-])CC1
Response: class 1

###

Exercise: for every item that follows, state its recorded Ki.
- Experimental system: GST-Bcl-2 (Homo sapiens (Human), UniProt P10415)
- Assay protocol: Time Resolved-Fluorescence Resonance Energy Transfer (TR-FRET) Bcl-2 binding assay
- Run parameters: GST-Bcl-2 1 nM, F-Bak peptide probe 100 nM, Tb-anti-GST antibody 1 nM; Ki by Wang's equation
Dear colleague, please return just the value in nM, with no unit written.

Prompt: Provide only the value of recorded Ki for CC1(C)CCC(CN2CCN(c3ccc(C(=O)NS(=O)(=O)c4ccc(NCCN5CCOCC5)c([N+](=O)[O-])c4)c(Oc4cccc(Cl)c4F)c3)CC2)=C(c2ccc(Cl)cc2)C1
Response: 0.759

Prompt: Provide only the value of recorded Ki for CN(C)C1CCC(Nc2ccc(S(=O)(=O)NC(=O)c3ccc(N4CCN(CC5=C(c6ccc(Cl)cc6)CC(C)(C)CC5)CC4)cc3Oc3cccc(Cl)c3)cc2[N+](=O)[O-])CC1 (centres unmarked)
Response: 0.084

Prompt: Provide only the value of recorded Ki for CC1(C)CCC(CN2CCN(c3ccc(C(=O)NS(=O)(=O)c4ccc(NCC5CCOCC5)c([N+](=O)[O-])c4)c(Oc4ccccc4-c4cn[nH]c4)c3)CC2)=C(c2ccc(Cl)cc2)C1
Response: 0.166

Prompt: Provide only the value of recorded Ki for CC1(C)CCC(CN2CCN(c3ccc(C(=O)NS(=O)(=O)c4cnc(OCCN5CCOCC5)c(C#N)c4)c(Oc4cc5cc[nH]c5cc4F)c3)CC2)=C(c2ccc(Cl)cc2)C1
Response: 0.155

Prompt: Provide only the value of recorded Ki for CN1CCC(Nc2ccc(S(=O)(=O)NC(=O)c3ccc(N4CCN(CC5=C(c6ccc(Cl)cc6)CC(C)(C)CC5)CC4)cc3Oc3cccc(Cl)c3)cc2[N+](=O)[O-])CC1
Response: 0.07

###

- Experimental system: GST-Bcl-2 (Homo sapiens (Human), UniProt P10415)
- Assay protocol: Time Resolved-Fluorescence Resonance Energy Transfer (TR-FRET) Bcl-2 binding assay
- Run parameters: GST-Bcl-2 1 nM, F-Bak peptide probe 100 nM, Tb-anti-GST antibody 1 nM; Ki by Wang's equation
Exercise: for every item that follows, state its recorded pKi.
// pKi: -log10(molar conc.)

Prompt: Provide only the value of recorded pKi for CCN1CCC(Nc2ccc(S(=O)(=O)NC(=O)c3ccc(N4CCN(CC5=C(c6ccc(Cl)cc6)CC(C)(C)CC5)CC4)cc3Oc3ccccc3Cl)cc2[N+](=O)[O-])CC1
Response: 10.30

Prompt: Provide only the value of recorded pKi for CCNCc1cccc(Oc2cc(N3CCN(Cc4ccccc4-c4ccc(Cl)cc4)CC3)ccc2C(=O)NS(=O)(=O)c2ccc(NCC3CCOCC3)c([N+](=O)[O-])c2)c1
Response: 7.51

Prompt: Provide only the value of recorded pKi for CC1(C)CCC(CN2CCN(c3ccc(C(=O)NS(=O)(=O)c4cnc(OCC5(F)CCN(CC(F)F)CC5)c(Cl)c4)c(Oc4cnc(N)c(Cl)c4)c3)CC2)=C(c2ccc(Cl)cc2)C1
Response: 8.67

Prompt: Provide only the value of recorded pKi for CN1CCC(Nc2ccc(S(=O)(=O)NC(=O)c3ccc(N4CCN(CC5=C(c6ccc(Cl)cc6)CC(C)(C)CC5)CC4)cc3Oc3cccc(Cl)c3)cc2S(=O)(=O)C(F)(F)F)CC1
Response: 10.18

Prompt: Provide only the value of recorded pKi for CN(C)CCCNc1ccc(S(=O)(=O)NC(=O)c2ccc(N3CCN(CC4=C(c5ccc(Cl)cc5)CC(C)(C)CC4)CC3)cc2Oc2cccc3[nH]cc(CN4CCN(C)CC4)c23)cc1[N+](=O)[O-]
Response: 10.51

Prompt: Provide only the value of recorded pKi for CC1(C)CCC(CN2CCN(c3ccc(C(=O)NS(=O)(=O)c4ccc(NC5CCN(C6CCOCC6)CC5)c([N+](=O)[O-])c4)c(Oc4cc5cc[nH]c5cc4Cl)c3)CC2)=C(c2ccc(Cl)cc2)C1
Response: 10.04

Prompt: Provide only the value of recorded pKi for CN(C)CCCc1c[nH]c2cccc(Oc3cc(N4CCN(CC5=C(c6ccc(Cl)cc6)CC(C)(C)CC5)CC4)ccc3C(=O)NS(=O)(=O)c3ccc(NCC4CCOCC4)c([N+](=O)[O-])c3)c12
Response: 10.24

Prompt: Provide only the value of recorded pKi for CC1(C)CCC(CN2CCN(c3ccc(C(=O)NS(=O)(=O)c4ccc(NC5CCN(C6CCOCC6)CC5)c([N+](=O)[O-])c4)c(Oc4ccc(N)nc4)c3)CC2)=C(c2ccc(Cl)cc2)C1
Response: 9.73

Prompt: Provide only the value of recorded pKi for CN1CCC(Nc2ccc(S(=O)(=O)NC(=O)c3ccc(N4CCN(CC5=C(c6ccc(Cl)cc6)CC(C)(C)CC5)CC4)cc3Oc3cccc(Cl)c3F)cc2[N+](=O)[O-])CC1
Response: 9.90

Prompt: Provide only the value of recorded pKi for CN1CCC(Nc2ccc(S(=O)(=O)NC(=O)c3ccc(N4CCN(CC5=C(c6ccc(Cl)cc6)CC(C)(C)CC5)CC4)cc3Nc3ccccc3Cl)cc2[N+](=O)[O-])CC1
Response: 8.55

Values compiled from patent US8952157B2.
